biological target: CD94/NKG2C (Homo sapiens, UniProt P26717+Q13241); assay: Steady-state surface plasmon resonance of peptide-HLA-E complex with CD94/NKG2C; type: binding; conditions: CD94/NKG2C concentration 0.8 μM
Sequence (P26717 94-231 limits assumed): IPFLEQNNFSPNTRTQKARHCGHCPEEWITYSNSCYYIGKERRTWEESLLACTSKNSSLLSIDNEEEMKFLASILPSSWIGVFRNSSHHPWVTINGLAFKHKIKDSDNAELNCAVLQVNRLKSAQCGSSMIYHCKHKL
Sequence (Q13241 32-179 limits assumed): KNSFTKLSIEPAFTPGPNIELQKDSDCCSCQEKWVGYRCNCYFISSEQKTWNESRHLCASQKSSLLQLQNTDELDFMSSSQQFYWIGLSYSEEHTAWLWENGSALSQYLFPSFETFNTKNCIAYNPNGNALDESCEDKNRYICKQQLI
Where no end group is shown, it is not given here.
# if value of binding of peptide-HLA-E complex to CD94/NKG2C normalized to a fitted Rmax reaches 0.05, tag Satisfied; if it stays below, tag Not satisfied

Request: Given VNPGRSLFL [human5, VNPGRSLFL] , state whether its binding of peptide-HLA-E complex to CD94/NKG2C normalized to a fitted Rmax is at least 0.05.
Response: Satisfied

Request: Also need TAPARTMFL [human13, TAPARTMFL] , thanks.
Response: Satisfied

Request: Also need QMPSRSLLF [human1, QMPSRSLLF] , thanks.
Response: Satisfied

Request: Also need TLPKRGLFL [human2, TLPKRGLFL] , thanks.
Response: Not satisfied

Request: Also need TGPWRSLWI [human3, TGPWRSLWI] , thanks.
Response: Not satisfied

====

tested on: NKG2A−/NKG2C+ NK cells; experiment: NK cell activation markers in NKG2A-/NKG2C+ NK cells incubated with peptide and K562 expressing HLA-E (activation); assay type: cell-based, human; conditions: NKG2A-/NKG2C+ NK cells, K562/HLA-E, Trial 6
Where no end group is shown, it is not given here.
result.type: percentage of CD107+ NK cells (%)
Kindly answer with a numeric value in %, unit omitted.

Request: I have this sequence here, QMPSRSLLF [human1, QMPSRSLLF] , and I need its recorded percentage of CD107+ NK cells.
Response: 57.6

Request: Also need TLPKRGLFL [human2, TLPKRGLFL] , thanks.
Response: 59.3

Request: Also need TGPWRSLWI [human3, TGPWRSLWI] , thanks.
Response: 39.5

Request: Also need FLPNRSLLF [human8, peptide SLC52A3 354-362 derived from the human proteome] , thanks.
Response: 53.1

Request: Also need VLPHRTQFL [CMV1, novel CMV-derived peptide UL120 72-80, Merlin] , thanks.
Response: 53.4

Request: Also need VMAPRTLIL [VMAPRTLIL (LIL), positive control peptide, reference compound] , thanks.
Response: 63.2

====

molecular target: CD94/NKG2C (Homo sapiens, UniProt P26717+Q13241); test: Steady-state surface plasmon resonance of peptide-HLA-E complex with CD94/NKG2C; assay type: binding; conditions: CD94/NKG2C concentration 51.2 μM
Where no end group is shown, it is not given here.
Task for the reader: assign each of the following sequences its reported binding of peptide-HLA-E complex to CD94/NKG2C normalized to a fitted Rmax.
Number, no unit, nothing else.

Request: I have this sequence here, TAPARTMFL [human13, TAPARTMFL] , and I need its recorded binding of peptide-HLA-E complex to CD94/NKG2C normalized to a fitted Rmax.
Response: 0.746

Request: Also need TGPWRSLWI [human3, TGPWRSLWI] , thanks.
Response: 0.353

Request: Also need QMPSRSLLF [human1, QMPSRSLLF] , thanks.
Response: 0.832

Request: Also need VNPGRSLFL [human5, VNPGRSLFL] , thanks.
Response: 0.990

Request: Also need TLPKRGLFL [human2, TLPKRGLFL] , thanks.
Response: 0.755
